Test system: HL-60
TEST NAME: Cytotoxicity against human HL60 cells after 48 hrs by MTT assay
Format: functional, cell-based
SETTINGS: HL-60, 48 h
MEASUREMENT LABEL: IC50 (µM)
Give bare numbers, in µM.

Worked set:
>  <SAMPLE SMILES>
CSCC[C@H](NCCc1nc(C(=O)O)cc2c3ccccc3n(Cc3ccccc3)c12)C(=O)O

>  <TESTED TARGET>
HL-60

>  <UNITS SYMBOL>
µM

>  <VALUE REPORTED>
182

$$$$
>  <SAMPLE SMILES>
N=C(N)NCCC[C@H](NCCc1nc(C(=O)O)cc2c3ccccc3n(Cc3ccccc3)c12)C(=O)O

>  <TESTED TARGET>
HL-60

>  <UNITS SYMBOL>
µM

>  <VALUE REPORTED>
40.9

$$$$

### Prompt Provide IC50 value for the following compound: O=C(O)c1cc2c3ccccc3n(Cc3ccccc3)c2c(CCN[C@@H](Cc2ccccc2)C(=O)O)n1
### Response 31.8
